target: Recombinant soluble trimeric human BAFF (furin-cleaved human BAFF 134-285) (human, UniProt Q9Y275 134-285); test: cell-based or functional assay
Soluble trimeric huBAFF (50 pM) Neutralization IC90 strictly under 500 pM means yes; at 500 pM or over means no.

352G11A10 (antibody, V domains shown) VH: QVQLQQSGPELVKPGGSVRISCKASGYSLISYYIHWVKQRPGQGLEWIGLTFPGSGNSKFIEKFKGKATLTADTSSNTAYIQLSSLTSEDSAVYYCTRGDFGNYLAYWYFDVWGTGTTVTVSS VL: DIKMTQSPSSIYASLGERVTITCKASQDIHSYLSWFQQKPGKSPKTLMYRTNRLVDGVPSRFSGSGSGQDYSLTIRSLEYEDMGNYYCLQYDEFPYTFGGGAKLEVK ... yes
323E9D1 (antibody, V domains shown) VH: QVTLKESGPGILQPSQTLSLTCSFSGFSMRTFGMGVGWIRQPSGKGLEWLAHIWWNDEKYYNPDLKSRLTVSKDSSKNQVFLTIANVDTSDTAPYYCTRVGPSISTIAEGFPYWGQGTLVTVSA VL: DIVMTQSQKFVSTRVGDRVSITCKASQNVGAAVVWYQQKSGQPPKLLIRSASNRYIGVPDRFTGSGSGTDFTLTVSDVQSGDLADYFCQQYSNYPLTFGAGTKLELT ... yes
436H2C12 (antibody, V domains shown) VH: QVQLQQSGPELVKPGASVKLSCKASGYTFSDYTIHWVKQSPGQGLEWIGWIYPGRGNTKYNDKFKGKATMTADKSSSTAYMQLSSLTSEESAVYFCARDYRRYYAMDYWGQGTSVTVSS VL: NIVLTQSPASLAVSLGQRATISCRASESVDNYGNSFMHWYQQKPGQPPKLLISLASNLESGVPARFSGSGSRTDFTLTIDPVEADDAATYYCQQNNEDPRTFGGGTKLEIK ... yes
319B8A12 (antibody, V domains shown) VH: KVTLKESGPGILQPSQTLSLTCSFSGFSLRTFGMGVGWIRQPSGKGLEWLAHIWWNDEKYYNPDLKSRLTVSKDSSKNQVFLTIANVDTSDTAPYYCTRVGPSISTVAEGFPYWGQGTLVTVSA VL: DIVMTQSQKFVSTRVGDRVSITCKASQNVGAAVVWYQQKSGQPPKLLIRSASNRYIGVPDRFTGSGSGTDFTLTVSDVQSGDLADYFCQQYSNYPLTFGAGTKLELTR ... yes
344B9D9 (antibody, V domains shown) VH: EFQLQQSGPELGEPGASVKISCKASGFSFSDYNINWVKQSNGKSLEWIGKVHPKDGTATYNQKFQDKATLTLDQSSSTAYMQLSSLTSEDSAVYYCLPLYYDSLTKILFAYWGQGTLVTVSA VL: DIQMTQSPASLSASVGETVTITCRASGNIHNYLAWYQQKQGKSPQLLVYSAITLADGVPSRFSGSGSETQFSLKINSLQPEDFGIYYCQHFWNTPYTFGGGTKLEIK ... yes

Does this binder meet the criterion Soluble trimeric huBAFF (50 pM) Neutralization IC90 < 500 pM? 320F9C5 (antibody, V domains shown) VH: QVTLKESGPGILQSSQTLSLTCSFSGFSLRTFGMGVGWIRQPSGKGLEWLAHIWWNDDKSSHPALKSRLTISKDTSKNQVFLKIANVDTAETATYYCVRIGPSITTVAEGFAYWGQGTLVTVSA VL: DIVMTQSQKFMSTTVGDRVSITCKASQNVGSVVAWYQQRPGQSPTLLIYSASNRYTGVPDRFTGSGSGTDFTLTISNMQSEDLADYFCQQYSSYPLTFGAGTKLELK
no

Does this binder meet the criterion Soluble trimeric huBAFF (50 pM) Neutralization IC90 < 500 pM? 444G1A10 (antibody, V domains shown) VH: RVQLKESGPGLVAPSQSLFITCTVSGFSLTTYEINWVRQSPGKGLEWLGVIWTGGTTKYNSAFISRLSITKDNSKSLVFLKMSSLQTDDTAIYYCVREGRRYYAMDYWGQGTSVTVSS VL: NIVLTQSPASLAVSLGQRATISCRASESVDSYGNSFMFWFQQKPGQAPKLLIFLTSNLESGVPARFSGSGSRTDFTLTIDRVEADDAATYYCQQSNEDPRTFGGGTKLEIK
yes

Does this binder meet the criterion Soluble trimeric huBAFF (50 pM) Neutralization IC90 < 500 pM? 384D5A2 (antibody, V domains shown) VH: QVTLKESGPGILQPSQTLSLTCSFSGFSLNTYGMGVGWIRQPSGKGLEWLANIWWNDDKYYNSALKSRLAISKDASNSQVFLKISSVDTTDTATYYCAQVAATIVTTYGAWFAYWGQGTLVTVSA VL: DIQMTQSPASLSVSVGETVTITCRSSENIYSSLAWYQQKQGKSPQLLVYAATNLAKGVPSRFSGSGSGTQYSLKINSLQSEDFGSYFCQHFWGSPFAFGSGTKLEIK
no

Does this binder meet the criterion Soluble trimeric huBAFF (50 pM) Neutralization IC90 < 500 pM? 363D4A10 (antibody, V domains shown) VH: QVTLKESGPGILQSSQTLSLTCSFSGFSLKTFGMGVGWIRQPSGKGLEWLAHIWWNDDKFYHPALKSRLTISKDTSKNQVFLKIANVDTAETATYYCVRIGPSITTVAEGFAYWGQGTLVTVSA VL: DIVMTQSQKFMSTTVGDRVTITCKASQNVGSAVVWYQQKPGQSPILLIFSASNRYTGVPDRITGSGSGAEFTLTISSVQSEDLAEYFCQQYSSYPLTFGAGTKLELK
yes

Does this binder meet the criterion Soluble trimeric huBAFF (50 pM) Neutralization IC90 < 500 pM? Reference 2 (antibody, human IgG1, lambda, V domains shown, Comparator anti-BAFF antibody) VH: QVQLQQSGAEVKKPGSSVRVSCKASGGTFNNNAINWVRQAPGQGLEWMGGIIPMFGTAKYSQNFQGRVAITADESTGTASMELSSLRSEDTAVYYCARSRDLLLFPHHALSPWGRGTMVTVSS VL: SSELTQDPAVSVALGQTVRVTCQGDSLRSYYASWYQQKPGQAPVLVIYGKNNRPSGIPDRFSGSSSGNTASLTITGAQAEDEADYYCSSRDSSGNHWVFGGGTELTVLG
no
